Molecular target: UGT1A9 (Homo sapiens)
Sequence (O60656 26-530): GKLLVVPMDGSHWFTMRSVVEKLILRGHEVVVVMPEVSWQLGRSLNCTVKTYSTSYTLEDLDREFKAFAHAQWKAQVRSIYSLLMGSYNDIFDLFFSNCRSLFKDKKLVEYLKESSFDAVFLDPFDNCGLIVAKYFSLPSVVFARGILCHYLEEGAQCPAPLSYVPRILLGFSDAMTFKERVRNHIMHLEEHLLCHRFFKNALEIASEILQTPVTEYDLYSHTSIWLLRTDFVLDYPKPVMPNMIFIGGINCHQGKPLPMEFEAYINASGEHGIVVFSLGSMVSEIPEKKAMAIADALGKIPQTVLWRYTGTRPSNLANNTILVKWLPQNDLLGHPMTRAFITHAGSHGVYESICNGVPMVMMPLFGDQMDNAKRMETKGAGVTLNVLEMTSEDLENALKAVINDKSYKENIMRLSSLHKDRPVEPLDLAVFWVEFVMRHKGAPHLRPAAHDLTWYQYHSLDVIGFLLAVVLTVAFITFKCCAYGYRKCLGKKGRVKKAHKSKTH
Metric: IC50 (µM)
Write down the numeric answer in µM and omit the unit.

UGT1A9 (Homo sapiens) IC50 of COc1cc([C@H]2OC[C@H]3[C@@H]2CO[C@@H]3c2ccc3c(c2)OCO3)cc(OC)c1OC [Aschantin] is 71

---

Target: CYP3A4 (Homo sapiens, UniProt P08684)
Sequence (P08684 2-503): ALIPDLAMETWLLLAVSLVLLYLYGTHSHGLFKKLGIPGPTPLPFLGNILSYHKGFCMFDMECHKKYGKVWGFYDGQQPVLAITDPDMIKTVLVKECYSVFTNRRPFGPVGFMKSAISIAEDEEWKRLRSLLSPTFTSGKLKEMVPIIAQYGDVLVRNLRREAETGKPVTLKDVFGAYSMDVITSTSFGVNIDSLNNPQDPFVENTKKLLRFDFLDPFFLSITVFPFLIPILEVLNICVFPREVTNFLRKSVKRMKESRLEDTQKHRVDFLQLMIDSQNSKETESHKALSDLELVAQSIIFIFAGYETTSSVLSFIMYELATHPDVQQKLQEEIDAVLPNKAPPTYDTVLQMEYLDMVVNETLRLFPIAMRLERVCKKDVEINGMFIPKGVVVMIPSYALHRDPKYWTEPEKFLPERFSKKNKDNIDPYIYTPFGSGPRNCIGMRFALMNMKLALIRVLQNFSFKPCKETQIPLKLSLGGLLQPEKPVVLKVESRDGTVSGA
Metric: Ki (µM)
Express it in µM; write the number only.

compound COc1cc([C@H]2OC[C@H]3[C@@H]2CO[C@@H]3c2ccc3c(c2)OCO3)cc(OC)c1OC [Aschantin] , Ki observed: 12.6
